Values compiled from PubChem BioAssay (NCI).

Test system: HOP-92 NSCLC
measurement.protocol: NCI-60 one-dose screen, 48 h
test.conditions: 10 µM unless noted
Procedure: Growth inhibition of the HOP-92 human Non-Small Cell Lung tumor cell line is measured as a screen for anti-cancer activity. Cells are grown in 96 well plates and exposed to the test compound for 48 hours. Compounds are tested at a single concentration, which is 10^-5 M for most compounds. The reported endpoint is percent growth (GI% or GIPRCNT), where numbers from 0 - 100% represent growth inhibition, and numbers from -100% - 0 represent cell death. […]
Compounds without any hit were thinned out: in the full panel of roughly 83,000, 20% have a hit. The source made the active and inactive calls. Rule for the calls: active = growth percent below 10; inactive = the rest.
Your response should consist of one outcome taken from T = active, F = inactive

Examples from the recorded data:
| molecule | label.class |
| --- | --- |
| O=c1[nH]c2cc(Cl)ccc2n1C1CCN(CCCC(c2ccc(F)cc2)c2ccc(F)cc2)CC1 | T |
| CC(=O)OC1CCC2(C)C(=CCC3C4CC(CN5CC5)C(=O)C4(C)CCC32)C1 (stereo not given) | F |
| CCCC(C)(C)c1ccc2c(c1)OC(C)(C)[C@@H]1CC=C(C)C[C@@H]21 | F |
| CC1([N+](=O)[O-])COP(=O)(Nc2ccc(F)cc2)OC1 (stereo not given) | F |

[Q] Hello, I am checking results. What call was entered for CC(C)(C)[Si](C)(C)OC1[C@@H](O[Si](C)(C)C(C)(C)C)[C@@H](CNC(=O)NC(=O)CF)O[C@H]1n1cnc2c(NC(=O)Nc3ccccc3)ncnc21 (stereo not given in full) ?
[A] F

[Q] Hello, I am checking results. What call was entered for Nc1c(Br)cc([N+](=O)[O-])cc1[N+](=O)[O-] ?
[A] F

[Q] Hello, I am checking results. What call was entered for N#Cc1ncc(/N=C/c2ccc(N(CCCl)CCCl)cc2)s1 ?
[A] F

[Q] Hello, I am checking results. What call was entered for CC1CC=CCC12C(=O)NC(=S)NC2=O (stereo not given) ?
[A] F

[Q] Hello, I am checking results. What call was entered for C=CCC1(CC)C(=O)NC(=S)NC1=O ?
[A] F

[Q] Hello, I am checking results. What call was entered for O1[As]2O[As]3O[As]1O[As](O2)O3 ?
[A] T

[Q] Hello, I am checking results. What call was entered for CCOC(=O)Nc1cc(Cl)c([N+](=O)[O-])c(NC(=O)OCC)n1 ?
[A] F

[Q] Hello, I am checking results. What call was entered for Oc1c(Br)cc(Br)cc1Br.[Cu+2] ?
[A] F

[Q] Hello, I am checking results. What call was entered for COc1cccc2c1C(=O)c1c(O)c3c(c(O)c1C2=O)CC(O)(/C(C)=N/NC(=O)CCC(=O)N/N=C(\C)C1(O)Cc2c(O)c4c(c(O)c2C(OC2CC(N)C(O)C(C)O2)C1)C(=O)c1c(OC)cccc1C4=O)CC3OC1CC(N)C(O)C(C)O1 (stereo not given) ?
[A] T

[Q] Hello, I am checking results. What call was entered for O=C(N/N=C/c1ccc([N+](=O)[O-])o1)c1cc([N+](=O)[O-])cc([N+](=O)[O-])c1O ?
[A] F

[Q] Hello, I am checking results. What call was entered for Cc1cc(CCl)c(C)cc1CCl ?
[A] F

[Q] Hello, I am checking results. What call was entered for Cc1ccc2oc(=O)c3c(c2c1)OC(N)=C(C#N)C3c1ccco1 (stereo not given) ?
[A] F

[Q] Hello, I am checking results. What call was entered for O=C(C(=O)N1CCCC1)c1cn(CCCCCn2cc(C(=O)C(=O)N3CCCC3)c3ccccc32)c2ccccc12 ?
[A] F

[Q] Hello, I am checking results. What call was entered for O=C(CCc1ccco1)NC1CCN(CC2(c3ccc(Cl)cc3)CCC2)CC1 ?
[A] T

[Q] Hello, I am checking results. What call was entered for CC1(CF)NC(=O)NC1=O (stereo not given) ?
[A] F

[Q] Hello, I am checking results. What call was entered for Oc1ccc2c3c1O[C@H]1c4[nH]c5ccccc5c4C[C@@]4(O)C(C2)N(CC2CC2)CC[C@]314 ?
[A] F
